Reported folding stability dG values for a set of variants
B1: r11_951_TrROS_Hall (parent)
chain: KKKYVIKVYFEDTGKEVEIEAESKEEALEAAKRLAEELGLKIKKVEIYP

# Variants of: B1
# assay_remarks: folding stability dG (cDNA display proteolysis); higher = more stable
# conditions: PBS, room temperature
Use kcal/mol as the unit, but write only the number.

variant	recorded_endpoint	quantitative_readout
E20I	folding stability dG	4.38
V45C	folding stability dG	4.16

For the variant I47G , what folding stability dG is on record? 4.06

For the variant I19E , what folding stability dG is on record? 3.36

For the variant G39H , what folding stability dG is on record? 4.31

For the variant D12E , what folding stability dG is on record? 4.31

For the variant E25K , what folding stability dG is on record? 4.22
